Exercise: state measured metabolised at 0.25 h, 1 µM for each of the compounds provided.
- protocolDetails: Drug metabolism in human liver microsomes at 1 uM after 15 mins
- Assay type: ADME, microsome
- conditionSummary: read-out: Drug metabolism
Be sure to follow the number with its unit.

[in] metabolised at 0.25 h, 1 µM for CCCC[C@@H](CCO)Nc1nc(N)nc2c1CN(C(=O)c1cccs1)CC2 ?
[out] 37%

[in] What metabolised at 0.25 h, 1 µM value was documented for this compound, CCC[C@@H](CCO)Nc1nc(N)nc2c1CN(C(=O)c1cccs1)CC2 ?
[out] 22%

[in] What does the data say about its metabolised at 0.25 h, 1 µM? Entry: CCCC[C@@H](CCO)Nc1nc(N)nc2c1CN(C(=O)c1csc(C)n1)CC2
[out] 30%

[in] Consider the compound shown here: CCC[C@@H](CCO)Nc1nc(N)nc2c1CN(C(=O)c1csc(C)n1)CC2 What is its recorded metabolised at 0.25 h, 1 µM?
[out] 21%

----------
- systemUnderTest: Toll-like receptor 8 (Homo sapiens)
- protocolDetails: Agonist activity at human TLR8 expressed in HEK293 cells after 6 hrs by NFkappaB-luciferase reporter gene assay
- Assay type: cell-based
MEC less than 0.1 µM is 1 (yes); MEC greater than or equal to 0.1 µM is 0 (no).

[in] Problem: For the compound CCCCNc1nc(N)nc2c1CN(Cc1ccccc1Cl)CC2 , is MEC under 0.1 µM?
[out] 1 (yes)

[in] Does this compound meet the criterion MEC < 0.1 µM? CCCCNc1nc(N)nc2c1CN(Cc1cccc3ccccc13)CC2
[out] 0 (no)

[in] Strictly below 0.1 µM in MEC? CCCCNc1nc(N)nc2c1CN(C(=O)C1CCC1)CC2
[out] 0 (no)

[in] Please indicate whether the reported MEC of CCCCNc1nc(N)nc2c1CN(C(=O)c1csc(N)n1)CC2 is strictly below 0.1 µM.
[out] 0 (no)

[in] Input CCCCNc1nc(N)nc2c1CN(C(=O)c1cnc(C)cn1)CC2 ; condition: MEC strictly below 0.1 µM. Does it hold?
[out] 0 (no)

[in] Please determine if CCCCNc1nc(N)nc2c1CN(Cc1ccco1)CC2 is below 0.1 µM in terms of MEC.
[out] 1 (yes)

[in] Please check: MEC for CCCCNc1nc(N)nc2c1CN(C(=O)c1ccccn1)CC2 , strictly under 0.1 µM or not?
[out] 0 (no)

[in] Does CCCCNc1nc(N)nc2c1CNCC2 have MEC strictly under 0.1 µM?
[out] 0 (no)

[in] Is 0.1 µM strictly greater than the compound's reported MEC? compound: CCCCNc1nc(N)nc2c1CN(Cc1cccnc1)CC2
[out] 0 (no)

[in] Just wondering, is MEC of CCCCNc1nc(N)nc2c1CN(Cc1ccc(OC)cc1)CC2 below 0.1 µM?
[out] 1 (yes)

[in] Take the compound CCCCNc1nc(N)nc2c1CN(Cc1ccccn1)CC2 and say whether its MEC is less than 0.1 µM.
[out] 1 (yes)

----------
- systemUnderTest: Cytochrome P450 2C9 (Homo sapiens)
- Sequence (P11712 whole entry): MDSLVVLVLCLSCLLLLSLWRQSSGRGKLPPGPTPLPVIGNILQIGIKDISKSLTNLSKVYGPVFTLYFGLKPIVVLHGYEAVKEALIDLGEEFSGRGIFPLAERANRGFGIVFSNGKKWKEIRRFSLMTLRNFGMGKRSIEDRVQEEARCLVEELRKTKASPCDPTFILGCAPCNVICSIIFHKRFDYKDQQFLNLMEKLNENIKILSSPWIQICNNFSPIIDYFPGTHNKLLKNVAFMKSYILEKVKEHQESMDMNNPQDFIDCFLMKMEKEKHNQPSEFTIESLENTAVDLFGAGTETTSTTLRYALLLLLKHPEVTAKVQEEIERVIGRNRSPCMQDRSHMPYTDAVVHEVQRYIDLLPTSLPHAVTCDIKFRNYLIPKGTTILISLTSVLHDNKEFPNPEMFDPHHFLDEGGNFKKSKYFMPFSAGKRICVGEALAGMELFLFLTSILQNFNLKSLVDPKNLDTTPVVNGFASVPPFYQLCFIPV
measureName: IC50

[in] Observed IC50 on Cytochrome P450 2C9 (Homo sapiens) for CCC[C@@H](CCO)Nc1nc(N)nc2c1CN(C(=O)c1csc(C)n1)CC2 , please.
[out] > 10 µM

----------
- protocolDetails: Tmax in C57BL/6 mouse plasma at 5 mg/kg, po
- Type: ADME, organism-based
measureName: Tmax (min)
Give just the numeric value; min need not be written.

[in] Looking for the measured Tmax of CCC[C@@H](CCO)Nc1nc(N)nc2c1CN(C(=O)c1csc(C)n1)CC2 , can you help?
[out] 30

----------
- systemUnderTest: Toll-like receptor 7 (Homo sapiens) (UniProt Q9NYK1)
- Sequence (whole entry): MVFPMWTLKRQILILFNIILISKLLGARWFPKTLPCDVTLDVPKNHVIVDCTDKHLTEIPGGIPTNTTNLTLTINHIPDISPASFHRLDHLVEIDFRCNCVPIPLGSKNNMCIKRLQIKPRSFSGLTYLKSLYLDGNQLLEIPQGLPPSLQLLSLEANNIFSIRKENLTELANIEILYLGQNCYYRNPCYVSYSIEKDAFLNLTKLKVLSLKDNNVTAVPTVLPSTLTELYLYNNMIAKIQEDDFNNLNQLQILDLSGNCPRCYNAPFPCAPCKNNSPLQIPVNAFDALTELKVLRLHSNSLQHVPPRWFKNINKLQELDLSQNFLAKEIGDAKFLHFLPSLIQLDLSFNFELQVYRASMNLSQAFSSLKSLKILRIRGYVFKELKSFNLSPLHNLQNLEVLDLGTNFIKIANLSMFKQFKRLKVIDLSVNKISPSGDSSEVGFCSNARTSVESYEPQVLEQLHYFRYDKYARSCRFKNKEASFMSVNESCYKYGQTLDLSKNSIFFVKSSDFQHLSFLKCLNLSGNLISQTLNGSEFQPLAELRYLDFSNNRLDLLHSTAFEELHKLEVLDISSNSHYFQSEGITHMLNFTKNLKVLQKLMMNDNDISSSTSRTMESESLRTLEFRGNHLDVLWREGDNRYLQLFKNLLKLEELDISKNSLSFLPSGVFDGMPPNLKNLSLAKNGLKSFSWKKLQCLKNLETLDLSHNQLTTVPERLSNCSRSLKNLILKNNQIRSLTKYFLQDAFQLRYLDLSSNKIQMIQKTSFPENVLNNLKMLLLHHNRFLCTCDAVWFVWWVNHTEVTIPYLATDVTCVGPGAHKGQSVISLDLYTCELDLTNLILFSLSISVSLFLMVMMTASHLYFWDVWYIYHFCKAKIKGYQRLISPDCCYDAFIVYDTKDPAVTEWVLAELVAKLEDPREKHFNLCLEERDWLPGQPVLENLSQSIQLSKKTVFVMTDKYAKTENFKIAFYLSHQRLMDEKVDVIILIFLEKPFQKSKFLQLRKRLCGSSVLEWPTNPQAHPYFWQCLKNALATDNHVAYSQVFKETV
- protocolDetails: Agonist activity at TLR7 in human PBMC assessed as suppression of HCV replicon replication in human HuH7 luc/neo cells harboring RNA encoding bicistronic expression construct comprising wild type HCV type 1b NS3-NS5B regions exposed to conditioned media from compound treated PBMCs after 24 hrs by luciferase reporter gene assay
- Type: cell-based
Mark false (0) for MEC values under 0.4 µM, and true (1) for everything at or above.

[in] Decide: is the reported value of MEC for CCC[C@@H](CCO)Nc1nc(N)nc2c1CN(C(=O)c1csc(C)n1)CC2 equal to or greater than 0.4 µM?
[out] false (0)

[in] Is it the case that CCCCNc1nc(N)nc2c1CN(C(=O)c1cnc(C)cn1)CC2 has MEC reaching or exceeding 0.4 µM?
[out] true (1)

[in] Say whether CCCCNc1nc(N)nc2c1CN(Cc1cc(F)cc(F)c1)CC2 shows MEC of 0.4 µM or more.
[out] true (1)

[in] Hi team, for CCCCNc1nc(N)nc2c1CN(Cc1ccc(OC(F)(F)F)cc1)CC2 , is the recorded MEC at or above 0.4 µM?
[out] true (1)

[in] Check this compound for MEC at or above 0.4 µM: CCCCNc1nc(N)nc2c1CN(Cc1ccco1)CC2
[out] false (0)

[in] Given the entry CCCCNc1nc(N)nc2c1CN(C(=O)C(C)C)CC2 , answer whether its MEC meets or surpasses 0.4 µM.
[out] true (1)

[in] Does the compound CCCCNc1nc(N)nc2c1CN(Cc1ccc(OC)cc1)CC2 have recorded MEC that is 0.4 µM or more?
[out] false (0)

[in] Form field: MEC at least 0.4 µM? Entry: CCCCNc1nc(N)nc2c1CN(C(=O)c1scnc1C)CC2
[out] true (1)

[in] Could you please find out whether CCCC[C@@H](CCO)Nc1nc(N)nc2c1CN(C(=O)c1csc(C)n1)CC2 has MEC that meets 0.4 µM or exceeds it?
[out] false (0)

[in] Identify whether the reported MEC of the following compound is 0.4 µM or greater: CCCCNc1nc(N)nc2c1CN(C(=O)c1csc(N)n1)CC2
[out] true (1)

[in] Does CCCCNc1nc(N)nc2c1CN(C(=O)c1cnc(N)s1)CC2 have a reported MEC of at least 0.4 µM?
[out] false (0)

----------
- systemUnderTest: Toll-like receptor 7 (Homo sapiens)
- protocolDetails: Agonist activity at TLR7 in human PBMC assessed as suppression of HCV replicon replication in human HuH7 luc/neo cells harboring RNA encoding bicistronic expression construct comprising wild type HCV type 1b NS3-NS5B regions exposed to conditioned media from compound treated PBMCs after 24 hrs by luciferase reporter gene assay
- Format: cell-based
measureName: MEC (µM)
Report as a plain number; the unit µM is understood.

[in] Which MEC value is on record for CCCCNc1nc(N)nc2c1CN(Cc1ccc(C(F)(F)F)cc1)CC2 ?
[out] 0.54

[in] Would you mind telling me what MEC value was observed for CCCCNc1nc(N)nc2c1CN(Cc1cccs1)CC2 ?
[out] 0.16

[in] Fill in the blank: the reported MEC of CCCCNc1nc(N)nc2c1CN(Cc1c[nH]c3ccccc13)CC2 is ____.
[out] 0.18

[in] Consider the compound shown here: CCCCNc1nc(N)nc2c1CN(C(=O)c1cnccn1)CC2 What is its recorded MEC?
[out] 2.38

[in] Which MEC value belongs to CCCCNc1nc(N)nc2c1CN(C(=O)c1csc(C)n1)CC2 ?
[out] 0.53

[in] Can you look up the measured MEC of CCCCNc1nc(N)nc2c1CN(C(=O)c1cc(C)on1)CC2 for me?
[out] 0.22

[in] Consider the compound shown here: CCCCNc1nc(N)nc2c1CN(C(=O)c1ccncc1)CC2 What is its recorded MEC?
[out] 3.56

[in] MEC lookup needed for CCCCNc1nc(N)nc2c1CN(Cc1ccc(C(C)(C)C)cc1)CC2 , thanks.
[out] 2.79

[in] Would you mind telling me what MEC value was observed for CCCCNc1nc(N)nc2c1CN(Cc1cccc(Cl)c1Cl)CC2 ?
[out] 0.25

[in] Can you share its MEC? I mean this compound: CCCCNc1nc(N)nc2c1CN(C(=O)c1cccs1)CC2
[out] 0.07

[in] Fill in: MEC of CCCCNc1nc(N)nc2c1CN(C(=O)c1cocn1)CC2 is ___
[out] 0.17

[in] Fill in the blank: the reported MEC of CCCCNc1nc(N)nc2c1CN(Cc1c(Cl)cccc1Cl)CC2 is ____.
[out] 0.19

[in] // returns reported MEC for input CCCCNc1nc(N)nc2c1CN(Cc1ccc(-c3ccccc3)cc1)CC2
[out] 4.49

[in] Can you look up the measured MEC of CCCCNc1nc(N)nc2c1CN(C(=O)C1CCC1)CC2 for me?
[out] 0.23

[in] Item under review: CCC[C@@H](CCO)Nc1nc(N)nc2c1CN(C(=O)c1cccs1)CC2 . Reported MEC?
[out] 0.2

[in] What does the data say about its MEC? Entry: CCCCNc1nc(N)nc2c1CN(Cc1ccncc1)CC2
[out] 0.5

[in] Looking for the measured MEC of CCCCNc1nc(N)nc2c1CN(C(=O)c1cscn1)CC2 , can you help?
[out] 0.17

[in] Could you share which MEC value was measured for CCCC[C@@H](CCO)Nc1nc(N)nc2c1CN(C(=O)c1cccs1)CC2 ?
[out] 0.2

[in] Entry under review: CCCCNc1nc(N)nc2c1CN(C(=O)c1ccccn1)CC2 . Reported MEC?
[out] 2.21

[in] Dear colleague, I am looking for the recorded MEC of the following compound: CCCCNc1nc(N)nc2c1CN(Cc1cccnc1)CC2
[out] 0.15

[in] If you can, please state the reported MEC value of CCCCNc1nc(N)nc2c1CN(Cc1ccccn1)CC2 .
[out] 0.14

[in] If you can, please state the reported MEC value of CCCCNc1nc(N)nc2c1CN(C(=O)c1csnn1)CC2 .
[out] 0.15

[in] Can you look up the measured MEC of CCCCNc1nc(N)nc2c1CN(Cc1ccccc1Cl)CC2 for me?
[out] 0.15

[in] So what does the record say about MEC for CCCCNc1nc(N)nc2c1CN(C(=O)CC)CC2 ?
[out] 0.53

[in] Entry under review: CCCCNc1nc(N)nc2c1CN(Cc1cccc(OC)c1Cl)CC2 . Reported MEC?
[out] 0.05

[in] Item CCCCNc1nc(N)nc2c1CN(Cc1cccc3ccccc13)CC2 has what recorded MEC?
[out] 0.43
